B1: CPEB3 Ribozyme (parent)
chain: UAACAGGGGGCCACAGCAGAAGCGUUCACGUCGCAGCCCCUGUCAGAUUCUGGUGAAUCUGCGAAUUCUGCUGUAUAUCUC

Variants of: B1
Experiment description: self-cleavage, relative activity (ratio to wild type); higher = more cleavage; in vitro, sequencing
Hi there, I'd appreciate the recorded self-cleavage for every entry that follows.

IN: // returns reported self-cleavage for input UAACAGGGGGCCACAGCAUAAGCGUUCUCGUCGCAGCCCCUGUCAGAUUCUGGUGAAUCUGCGAAUUCUGCUGUAUAUCUC [G19U A28U]
OUT: 0.08

IN: Moving on to UAACAGGGGGCCACAGCAGAAGGGUUCACGUCGCAGCCCCUGCCAGAUUCUGGUGAAUCUGCGAAUUCUGCUGUAUAUCUC [C23G U43C]
OUT: 0.25

IN: Moving on to UAACAGGGGGCCACAGCAGAAGCGUUCACGUCGCAGCCCCCGUCAGAUUCUGGUGAAUCUGCGAAUUCUGUUGUAUAUCUC [U41C C71U]
OUT: 0.76

IN: Moving on to UAACAGGGGGCCACAGCAGAAGCGUUCACGUCGCAGCCCCUGUCAGAUUCUGGUGAAACUGCGAACUCUGCUGUAUAUCUC [U58A U66C]
OUT: 0.29

IN: Moving on to UAACAGGGGGCCACAGCAGAAGCGUUCACGUCGCAGCCCCUGUCAGAUUCUGGUGAAUCUGCGAAUUCUCCUGUAUAUCCC [G70C U80C]
OUT: 0.22

IN: Moving on to UAACAGGGGGCCACAGCAGAAGCGCUCACGUCGCAGCCCCUGUCAGAUUCUGGUGAAUCUGCGAAUUCUGCGGUAUAUCUC [U25C U72G]
OUT: 0.26

IN: Moving on to UAACAGGGGGCCACAGCAGAAGCGUUCACGUCGCAGCCCCUGUCAGAUUCUGGUGAAUCUGCGAACUCGGCUGUAUAUCUC [U66C U69G]
OUT: 0.31

IN: Moving on to UAACAGGGGGCCACAGCAGAAGCGUUCACGUCGCAGCACCUGUCAGAUUCUGGUGAAUCUGCGUAUUCUGCUGUAUAUCUC [C38A A64U]
OUT: 0.09

IN: Moving on to UAACAGAGGGCCACAGCAGAAGCGUUCACGUCGCAGCCCCUGUCAGAUUCUGGUGAAUCUGCGAAUUCUGCUAUAUAUCUC [G7A G73A]
OUT: 0.48

IN: Moving on to UAACAGGGGGCCACAGCAGAAGCGUUCACGUCGCAGCCCCUGUCAGAGUCUGGUGAAUCUGCGAAUUCAGCUGUAUAUCUC [U48G U69A]
OUT: 0.21

IN: Moving on to UAACAGGGGGCGACAGCAGAAGCGUUCACGUCGCAGCCCCUGUCAGAUUCUGGUGAAUCUGCGAAUUCUGCUGUAUAUCUC [C12G]
OUT: 0.59

IN: Moving on to UAACAGGGGGCCACAGCAGAAGCGUUCACGUCGCAGCCCCUGUCAGAUUCUGGUGAGUCUGCGAAUUCAGCUGUAUAUCUC [A57G U69A]
OUT: 0.54

IN: Moving on to UAACAGGGGGCCACAGCAGAAGCGUUCACGUCGCAGCCCCUGUCAGAUUCUGCUGAAUCUGCGAAUUCUGCUGUGUAUCUC [G53C A75G]
OUT: 1.16

IN: Moving on to UAAUAGGGGGCCACAGCAGAAGCGUUCACGUCGCAGCCCCUGUCAGAUUAUGGUGAAUCUGCGAAUUCUGCUGUAUAUCUC [C4U C50A]
OUT: 1.17

IN: Moving on to UAACAGGGGGCCACAGCAGAAGCGUUCACGUCGCACCCCCUGUCAGAUUCUGGUGUAUCUGCGAAUUCUGCUGUAUAUCUC [G36C A56U]
OUT: 0.13

IN: Moving on to UAACAGGGGGCCACAGCAGAAGCGUUCACGUCGCUGCCCCUGUCAGUUUCUGGUGAAUCUGCGAAUUCUGCUGUAUAUCUC [A35U A47U]
OUT: 0.26

IN: Moving on to UAACAGGGGGCCACAGCAGAAGCGUUGACGUCGCAGCCCCUGUCAGAUUUUGGUGAAUCUGCGAAUUCUGCUGUAUAUCUC [C27G C50U]
OUT: 0.23

IN: Moving on to UAACGGGGGGCCACAGCACAAGCGUUCACGUCGCAGCCCCUGUCAGAUUCUGGUGAAUCUGCGAAUUCUGCUGUAUAUCUC [A5G G19C]
OUT: 0.41

IN: Moving on to UAACAGGGGGCCACAGCAGAAGCGUUCACGUCGCAGCCCCUGUCAGACUCUGGUGAAUCUCCGAAUUCUGCUGUAUAUCUC [U48C G61C]
OUT: 0.18

IN: Moving on to UAACAGGGGGCCACAGCAGACGCGUUCACGUCGCAGCCCCUGUCAGAUUCUGGUGUAUCUGCGAAUUCUGCUGUAUAUCUC [A21C A56U]
OUT: 0.16

IN: Moving on to UAACAGGGGGCCACAGCAGAAGCGUUCACGUCGAAGCCCCUGUCAGAUUCUGGUGAAUCUGCGAGUUCUGCUGUAUAUCUC [C34A A65G]
OUT: 0.26

IN: Moving on to UAACAGGGGGCCACAGCAGAAGCGUUCACGUCGCAGCCCCUGUCAGAUUUUGGUGAAUCUGCGAAUCCUGCUGUAUAUCUC [C50U U67C]
OUT: 0.31

IN: Moving on to UAACAGAGGGCCACAGCAGAAGCGUUCACGUCGCAGCCCCUGUCAGAUUCUGGUGAAUCUGCGAAUUCUGCUGAAUAUCUC [G7A U74A]
OUT: 0.09

IN: Moving on to UAACAGGGGGCCACAGCAGAAGCGUUCACGUCGCAGCCACUGUCAGAUUCUGGUGAAUCUGCGAAUCCUGCUGUAUAUCUC [C39A U67C]
OUT: 0.16

IN: Moving on to UAACAGGGGGCCUCAGCAGAAGCGUUCACGUCGCAGCCCCAGUCAGAUUCUGGUGAAUCUGCGAAUUCUGCUGUAUAUCUC [A13U U41A]
OUT: 0.26

IN: Moving on to UAACAGGGGGCCACAGCAGAAGCGUUCACGUCGCAGCCCCCGUCAGAUUCUGGUGAAUCUGCGAAUUCUGCUAUAUAUCUC [U41C G73A]
OUT: 1.23

IN: Moving on to UAACAGGGGGCCACAGCAGAAGCGUUCACGUCGCAACCCCUGUCAGACUCUGGUGAAUCUGCGAAUUCUGCUGUAUAUCUC [G36A U48C]
OUT: 0.19

IN: Moving on to UAACAGGGGGCCACAGCAGAAGCGUUCACGUCGCAGCCCCUGUCAGAUUCUGGUGAAUCUGCGAAUUCUGCUGUAUAUGUC [C79G]
OUT: 1.13

IN: Moving on to UAACAGGGGGCCACAGCAGAAGCGUUAACGUCGCAGCCCCUGUCAGAUUCUGGUGAAUCUGCGAAUUCUGCUGUAUUUCUC [C27A A77U]
OUT: 0.14

IN: Moving on to UAACAGGGGGCCACAGCAGAAGCGUUCACGUCGCAGCCCCUGUCAGAUUCUGGUGAAUCUGCGAAUCCCGCUGUAUAUCUC [U67C U69C]
OUT: 0.32

IN: Moving on to UAACAGGGGGCCACAGCAGAAGCGGUCACGUCGCAGCCCCUGUCAGAUUCUGGUGAAUCUGCGAAUUCUGCUAUAUAUCUC [U25G G73A]
OUT: 0.51

IN: Moving on to UAACAGGGGGCCACAGCAGAAGCGUUCACGUCGCAGCCACUGUCAGAUUCUGGUGAAUCUGCGAAUUCUGCUGUAUGUCUC [C39A A77G]
OUT: 0.22

IN: Moving on to UAAUAGGGGGCCACAGCAGAAGCGUUCACGUCGCAGCCCCUGUCAGAUUCUGGUGAAUCUGCGAACUCUGCUGUAUAUCUC [C4U U66C]
OUT: 0.59

IN: Moving on to UAACAGGGGGCCACAGCAGAAGCGUUCACGUCGCAGCCCCUGUCAGAUUCUGGUGAAUCAGCGAACUCUGCUGUAUAUCUC [U60A U66C]
OUT: 0.34

IN: Moving on to UAACAGGUGGCCACAGCAGAAGCGUUCACGUCGCAGCCUCUGUCAGAUUCUGGUGAAUCUGCGAAUUCUGCUGUAUAUCUC [G8U C39U]
OUT: 0.08

IN: Moving on to UAACAGGGGGCCCCAGCAGAAGCGUUCACGUCGCAGCCCCUGUCAGAUUCUGGUGGAUCUGCGAAUUCUGCUGUAUAUCUC [A13C A56G]
OUT: 0.65

IN: Moving on to UAACAGGGGGCCACAGCAGAUGCGCUCACGUCGCAGCCCCUGUCAGAUUCUGGUGAAUCUGCGAAUUCUGCUGUAUAUCUC [A21U U25C]
OUT: 0.29

IN: Moving on to UAACAGGGGGCCACAGCAGAAGCGUUCACGUCGCAGCCCCUGUCAGAUUCUGGUGAAUCUGCAUAUUCUGCUGUAUAUCUC [G63A A64U]
OUT: 0.54

IN: Moving on to UAACAGGGGGCCUCAGCAGAAGCGUUCACGACGCAGCCCCUGUCAGAUUCUGGUGAAUCUGCGAAUUCUGCUGUAUAUCUC [A13U U31A]
OUT: 0.61

IN: Moving on to UAACAGGGGGCCACAGCUGAAGCGUUCACGUCGCAGCCCCUGUCAGAUUCUGGUGAAUCUGCGAAUUCUGCUGUAAAUCUC [A18U U76A]
OUT: 0.36

IN: Moving on to UAACAGGGGGCCACUGCAGAAGCGUUCACGUCGCAGCCCCUGUCAGAUUCUGGUGAAUCUGCGAAUUCUGCGGUAUAUCUC [A15U U72G]
OUT: 0.91

IN: Moving on to UAACAGGGGGCCACAGCAGAAGCGUUCACGUCGCAGCCCCUGUCAGAUUCUGGUGAAUAUGCGAAUUCUGCUGUAAAUCUC [C59A U76A]
OUT: 0.43

IN: Moving on to UAACAGGGGGCCACAGCAGAAGCGAUCACGUCGCUGCCCCUGUCAGAUUCUGGUGAAUCUGCGAAUUCUGCUGUAUAUCUC [U25A A35U]
OUT: 0.29

IN: Moving on to UAGCAGGGGGCCACAGCAGAAGCGUUCACGUCGCAGCCCCUGUCAGAUUCUGGUGAAUCUGCGAAGUCUGCUGUAUAUCUC [A3G U66G]
OUT: 0.62

IN: Moving on to UAACAGGGGGCCACAGCAGAAGCGUUCACGUCGCAGCCCCUGUCAGAUUCUGGUGAAUCUGCGAAUUCUGCCGUACAUCUC [U72C U76C]
OUT: 1.16

IN: Moving on to UAACAGGGGGCCACAGCUGAAGCGUUCACGUCGCAGCCCCUAUCAGAUUCUGGUGAAUCUGCGAAUUCUGCUGUAUAUCUC [A18U G42A]
OUT: 0.36
